Tested on: MDA-MB-231
Test: Cytotoxicity against human MDA-MB-231 cells assessed as viable cells at 1 uM after 72 hrs by MTT assay in absence of serum relative to control
Type: functional
Conditions: MDA-MB-231, 72 h, read-out: Activity
experimental.readout: viability at 1 µM (%)
Answer in %, number only, no unit symbol.

- CN(C)CCCNC1=Nc2cccc(Cl)c2C(C)(C)C1: 60.5
- CN(C)CCCNC1=Nc2cc(Cl)ccc2C(C)(C)C1: 68.4

From here, focus on the item given below.
**Q:** For the molecule "CC1(C)CC(NCCCCO)=Nc2ccc(Cl)cc21" , report viability at 1 µM.
**A:** 87.6
